# test method notes: NCI Yeast Anticancer Drug Screen. Data for the rad52 strain (AID 147);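 further: 0% = growth of vehicle-treated control cultures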
# measurement setup: S. cerevisiae rad52 mutant growth inhibition; at 33.0 µM; stronger effect = higher value
# Protocol: Growth inhibition of yeast strains with defined genetic alterations is measured as a screen for potential anti-cancer activity. Selected strains with alterations in DNA damage repair or cell cycle control were exposed to compounds and growth inhibition was measured relative to vehicle treated controls. The strain used in this assay is rad52
Compounds without any hit were thinned out: in the full panel of roughly 79,000, 15% have a hit.
Entries are sorted into classes by growth inhibition as follows: low (below 40%), moderate (40% to below 90%), high (90% or more)

Recorded results for 3 molecules are shown here.
Into which bin does this molecule go? CC(/C=C/c1ccc([N+](=O)[O-])o1)=N/N1CC(CN2CCOCC2)OC1=O (stereo unspecified)
high

Assign a bin to `CN(C)/C(=N/C(=S)Nc1ccccc1)SCc1ccccc1`
low

Tag the class for `CCN(CC)CCC(=O)Nc1ccc2sc3ccccc3c(=O)c2n1`
high

Next:
Input CC1CCC(C2=CSC3CCCCC3N2)CC1 (stereo unspecified) ; output its category
low

Returns: class label. Input: `CCN(CC)CCNc1ccc2nc(C)n3c4ccc(OC)cc4c(=O)c1c23`
moderate

Field: class (growth inhibition) — entry: O=C1C(CCSc2ccccc2)C(=O)N(c2ccccc2)C1c1ccccc1 (stereo unspecified)
high

Band of `CC(C)CCC[C@@H](C)[C@H]1CC[C@H]2[C@@H]3CC[C@H]4C[C@H](N)CC[C@]4(C)[C@H]3CC[C@]12C` ?
low

Lab log: `CC1(C)CC(=O)C(C(=O)Nc2cccs2)=C(O)C1` — assign growth inhibition category
moderate

Bin this entry: O=C(O)c1cc2c(cc1S(=O)(=O)O)C1C(C3C2C2(Cl)C(Cl)=C(Cl)C3(Cl)C2(Cl)Cl)C2(Cl)C(Cl)=C(Cl)C1(Cl)C2(Cl)Cl (stereo unspecified)
moderate

Which category fits this record: `NNc1ccccc1-c1nc2ccccc2[nH]1`
low

---

# test method notes: NCI Yeast Anticancer Drug Screen. Data for the rad52 strain (AID 147);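 further: 0% = growth of vehicle-treated control cultures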
# measurement setup: S. cerevisiae rad52 mutant growth inhibition; at 33.0 µM; stronger effect = higher value
Compounds without any hit were thinned out: in the full panel of roughly 79,000, 15% have a hit.
Rule: fulfilled for growth inhibition not less than 50%, not fulfilled for anything less.

Reference set, count: 6
Does the compound `CCO/C=C1\SC(=S)N(c2ccc(OCC)cc2)C1=O` have recorded growth inhibition that is 50% or more?
not fulfilled

Confirm if growth inhibition reported for the compound C/C(=N\OCC(O)CNCCSCc1ccccc1)c1ccccc1Cl (centres undefined) is 50% or above.
not fulfilled

Does COc1ccc2c3c1OC(C)C31CC(=O)CCC1CC2 (centres undefined) have a reported growth inhibition of at least 50%?
not fulfilled

Is the recorded value of growth inhibition equal to or greater than 50% for this compound? `CCCNC(=O)OCc1c(COC(=O)NCCC)c(-c2ccc(Cl)c(Cl)c2)n2c1CCC2`
not fulfilled

Assess whether reported growth inhibition for `CSc1nc(-c2ccccc2)nc(=[N+]2CCOCC2)s1` sits at 50% or higher.
fulfilled

Say whether CC(CC/C(=N/O)c1ccccc1)(CC/C(=N\O)c1ccccc1)[N+](=O)[O-] (centres undefined) shows growth inhibition of 50% or more.
not fulfilled

Next:
Kindly determine if growth inhibition recorded for `N#[N+]c1c([O-])c2ccccc2c2ccccc12` is above or exactly 50%.
fulfilled

---

# test method notes: NCI Yeast Anticancer Drug Screen. Data for the mlh1 rad18 strain (AID 175)
# measurement setup: S. cerevisiae mlh1 rad18 strain growth inhibition; at 50.0 µM (retest, dose inferred, filed as 5.0); stronger effect = higher value
Compounds without any hit were thinned out: in the full panel of roughly 79,000, 15% have a hit.
# cutoff 80% applies to growth inhibition; >= gives rule met, < gives rule not met

The following compounds have reported results that may help.
Identify whether the reported growth inhibition of the following compound is 80% or greater: `O=C(Nc1ccc(Cl)cc1)c1cc2cc(N=Nc3ccccc3Cl)ccc2oc1=O`
rule not met

Hi team, for `CCCCCCCC/C=C\CCCCCCCCN` , is the recorded growth inhibition at or above 80%?
rule not met

Dear colleague, could you confirm whether COC(=O)C1CCCCC1C(=O)Nc1ccccc1 (stereo unspecified) has growth inhibition at or above 80%?
rule not met

Kindly review the next compound as well.
Evaluate CCCCCCC1OCC(O)C(OCCCC)O1 (stereo unspecified) : growth inhibition at minimum 80%?
rule not met

---

# test method notes: NCI Yeast Anticancer Drug Screen. Data for the mlh1 strain (AID 171);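 further: 0% = growth of vehicle-treated control cultures of the same strain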
# measurement setup: S. cerevisiae mlh1 strain growth inhibition; at 33.0 µM; stronger effect = higher value
Compounds without any hit were thinned out: in the full panel of roughly 79,000, 15% have a hit.
Returns y if the recorded growth inhibition is greater than or equal to 20%, and n otherwise.

Is it the case that `c1c[nH]c(CN2CCN(Cc3ncc[nH]3)CC2)n1` has growth inhibition reaching or exceeding 20%?
y

Please check the record CCC(=O)C1=C(O)c2cc(OC)ccc2CC1C(=O)OC (configuration not stated) and state if its growth inhibition is at or above 20%.
n

Reported growth inhibition reaches at least 20% for O=C1C(CCSc2ccccc2)C(=O)N(c2ccccc2)C1c1ccccc1 (configuration not stated) ?
y

Is reported growth inhibition greater than or equal to 20% here: `O=C1Nc2ccc(Br)cc2C1=Nc1cccnc1`
n

Is it the case that `O=C(Nc1cccs1)c1ccccc1` has growth inhibition reaching or exceeding 20%?
n

***
Is reported growth inhibition greater than or equal to 20% here: `O=Cc1ccccc1C=O`
y

Is the recorded value of growth inhibition equal to or greater than 20% for this compound? `COc1ccc(C(=O)/C=C\c2ccc(Cl)c(Cl)c2)cc1`
n

Quick check: does `CN(C)/C(=N/C(=S)Nc1ccccc1)SCc1ccccc1` have growth inhibition greater than or equal to 20%?
n

---

# test method notes: NCI Yeast Anticancer Drug Screen. Data for the rad14 strain (AID 159);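 further: 0% = growth of vehicle-treated control cultures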
# measurement setup: S. cerevisiae rad14 strain growth inhibition; at 1.2 µM; stronger effect = higher value
Compounds without any hit were thinned out: in the full panel of roughly 79,000, 15% have a hit.
Please respond with reported growth inhibition for every item in the list.
Give bare numbers, in %.

Some entries whose results are on file:
// lookup growth inhibition for `CC1(C)OC(=O)C(=Cc2ccc([N+](=O)[O-])s2)C(=O)O1`
-12

growth inhibition lookup needed for c1ccc2c(c1)N=C1CCCC3CCCC123 (centres undefined) , thanks.
-3

growth inhibition lookup needed for `CC(=O)O/N=C1C=C/C(=C(/C#N)c2ccccc2)C=C/1C` , thanks.
1

For `Clc1nc(Cl)nc(Nc2cccc3ccccc23)n1` , what is its reported growth inhibition?
-4

# input compound: COC1=CCC23C(=O)C=CC(=O)C2(C1)C(=O)c1ccccc1C3=O (centres undefined) ; wanted: its growth inhibition
-24

# input compound: `CCOc1ccc(N)c(S)c1` ; wanted: its growth inhibition
-2

# get_value(readout='growth inhibition', item= CC1C(c2ccccc2)SC(=N)N1C (centres undefined) )
1

State the recorded growth inhibition for this entry: `O=[N+]([O-])c1cc[n+]([O-])c(Cl)c1`
1

Which measured growth inhibition value corresponds to `CC(C)N(CCCNc1c2ccccc2nc2cccc([N+](=O)[O-])c12)C(C)C` ?
93

Reported growth inhibition for O=C1CSC(c2ccccc2)N1c1ccc(-c2ccc(-n3c(-c4ccccc4)nc4ccccc4c3=O)cc2)cc1 (centres undefined) : what is it?
1

Hi, could you look up growth inhibition for each item in my list?
1. Cc1cccc(C)c1NC(=O)CCC(=O)C(C)C(=O)c1ccc(O)cc1 (centres undefined)
2. CCCCCCCCN1COCC(COc2ccccc2C)OC1 (centres undefined)
3. C[n+]1c(-c2ccc(/C=N/NC(=O)c3ccc(C(=O)N/N=C/c4ccc(-c5cn6ccccc6[n+]5C)cc4)cc3)cc2)cn2ccccc21
4. COC(=O)C(Cc1c[nH]c2ccccc12)N1CN(C)c2ccccc2C1=O (centres undefined)
5. CCN(CC)CCNc1ccc2ncn3c4ccc(O)cc4c(=O)c1c23
6. CSc1nc(-c2ccccc2)nc(=[N+]2CCOCC2)s1
7. S=C1N(c2ccc(Cl)cc2)C2=C(N=Nc3ccccc3)C(=Nc3ccccc3S2)N1c1ccccn1

1: -1; 2: 0; 3: -1; 4: 6; 5: 2; 6: 4; 7: 14

---

Can you tell me growth inhibition for the items I'm about to list?
# test method notes: NCI Yeast Anticancer Drug Screen. Data for the mec2-1 strain (AID 157)
# measurement setup: S. cerevisiae mec2-1 strain, at 3.7 µM, stronger effect = higher value
This is part of a sample that, as a whole, favours compounds with a hit. Of some 79,000 tested, about 15% had one in any assay.
Answers are plain numbers, in %.

Check out these entries, answers already filled in.
Give its growth inhibition value. Item: O=C(Cc1ccccc1)NN1C(=O)C(Cl)C1c1cc(Br)cc(Br)c1O (centres undefined)
19

Endpoint output: growth inhibition of `COC(=O)c1ccccc1N=NNc1cccc(SC)c1` . Value?
9

// lookup growth inhibition for O=C(NCCCCN1CC2CCCC2C1)C(C1CCCCC1)C1CCCCC1 (centres undefined)
15

Below are some compounds; for each one, tell me its growth inhibition.
1. CC(C)C(=O)CC(Sc1ccc(N)cc1)c1ccccc1 (centres undefined)
2. O=C(CN(c1ccccc1)c1ccccc1)n1nnc2ccccc21
3. Cc1c(C(=O)/C=C/c2ccccc2[N+](=O)[O-])[n+](=O)c2ccccc2n1[O-]
4. CC(CC/C(=N/O)c1ccccc1)(CC/C(=N\O)c1ccccc1)[N+](=O)[O-] (centres undefined)
5. Fc1cc(F)c(F)c(S)c1F
6. C/C(=N\Sc1ccccc1)c1ccccc1O

-2
0
32
-3
-55
2
